# maps each entry to its fold change (FC)
# Measured target: Retinoic acid receptor RXR-beta (Homo sapiens) (UniProt P28702)
# Sequence (P28702 whole entry, the tested form may be a part): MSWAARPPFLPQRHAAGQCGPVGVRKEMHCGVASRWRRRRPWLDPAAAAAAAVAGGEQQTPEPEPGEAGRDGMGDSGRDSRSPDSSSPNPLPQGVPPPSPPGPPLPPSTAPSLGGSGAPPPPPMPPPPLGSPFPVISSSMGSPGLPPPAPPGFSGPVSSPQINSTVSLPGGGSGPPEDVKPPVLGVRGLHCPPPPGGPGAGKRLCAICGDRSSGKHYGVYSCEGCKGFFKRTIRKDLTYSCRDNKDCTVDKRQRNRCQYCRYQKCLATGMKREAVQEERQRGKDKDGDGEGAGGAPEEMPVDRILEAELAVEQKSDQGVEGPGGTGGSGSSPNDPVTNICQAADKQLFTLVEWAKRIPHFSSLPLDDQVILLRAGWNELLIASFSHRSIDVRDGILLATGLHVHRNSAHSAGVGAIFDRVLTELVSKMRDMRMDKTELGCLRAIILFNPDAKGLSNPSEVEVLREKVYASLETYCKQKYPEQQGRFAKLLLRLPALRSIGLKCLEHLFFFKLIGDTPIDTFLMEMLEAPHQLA
# Assay name: Agonist activity at Gal4-fused human RXR-beta transfected in human HeLa cells at 51 nM after 12 hrs by luciferase reporter gene assay relative to control
# Format: cell-based
Give only the figure.

See these solved cases before continuing.
- Smiles input: "O=C(O)c1ccc(/C=C/c2ccc3c(-c4ccccc4)ccc(-c4ccccc4)c3c2)cc1"
  fold change (FC): 15
- Smiles input: "C/C(=C\\c1ccc(C(=O)O)cc1)c1ccc2c(c1)C(C)(C)CCC2(C)C"
  fold change (FC): 15
- Smiles input: "O=C(O)c1ccc(/C=C/c2ccc3c(-c4ccccc4)ccc(-c4ccccc4)c3c2)c(F)c1"
  fold change (FC): 15

Form: item O=C(O)c1ccc(/C=C/c2ccc3c(-c4ccccc4)ccc(-c4ccccc4)c3c2)c(Br)c1 ; test system Retinoic acid receptor RXR-beta (Homo sapiens) (UniProt P28702); fold change (FC): 15

====

# Measured target: Retinoic acid receptor RXR-beta (Homo sapiens)
# Assay name: Agonist activity at Gal4-fused human RXR-beta transfected in human HeLa cells at 875 nM after 12 hrs by luciferase reporter gene assay relative to control
# Assay type: cell-based
# maps each entry to its fold change (FC)
Give only the figure.

See these solved cases before continuing.
- Smiles input: "O=C(O)c1ccc(/C=C/c2ccc3c(-c4ccccc4)ccc(-c4ccccc4)c3c2)c(F)c1"
  Readout name: "fold change (FC)"
  Reported measurement: 15
- Smiles input: "O=C(O)c1ccc(/C=C/c2ccc3c(-c4ccccc4)ccc(-c4ccccc4)c3c2)cc1"
  Readout name: "fold change (FC)"
  Reported measurement: 15
- Smiles input: "C/C(=C\\c1ccc(C(=O)O)cc1)c1ccc2c(c1)C(C)(C)CCC2(C)C"
  Readout name: "fold change (FC)"
  Reported measurement: 15

We now examine a further molecule.
fold change (FC) recorded for this molecule, O=C(O)c1ccc(/C=C/c2ccc3c(-c4ccccc4)ccc(-c4ccccc4)c3c2)c(Br)c1 , is 15
